System: adult mosquitoes Anopheles funestus strain FUMOZ-R
Test: Anopheles funestus test (ANPHFU surface treatment & contact assay)
Format: in vivo
Details: surface concentration 20 mg/m^2, 30 min exposure, 24 hours after contact, read-out: efficacy (mortality)
readout_kind: mortality at 20 mg/m2

mortality at 20 mg/m2 in this record for C[C@H](NC(=O)c1cc(OC(F)F)cc(SC(F)F)c1)c1ncnn1-c1ncc(C#N)s1 [I-130] : 80 to 100%

mortality at 20 mg/m2 in this record for C[C@H](NC(=O)c1cc(C(F)(F)F)cc(C(F)(F)F)c1)c1ncnn1-c1ncc(C(=O)N(C)C)s1 [I-64] : 80 to 100%

mortality at 20 mg/m2 in this record for CC(NC(=O)c1cc(OC(F)(F)F)cc(C2(C#N)CC2)c1)c1ncnn1-c1ncc(C#N)s1 (racemic) [I-87] : 80 to 100%

---
mortality at 20 mg/m2 in this record for C[C@H](NC(=O)c1cc(OC(F)(F)F)cc(C2(C#N)CC2)c1)c1ncnn1-c1ncc(C#N)s1 [I-142] : 80 to 100%

mortality at 20 mg/m2 in this record for C[C@H](NC(=O)c1cc(Br)cc(OC(F)(F)F)c1)c1ncnn1-c1ncc(C(=O)N(C)C)s1 [I-118] : 80 to 100%

mortality at 20 mg/m2 in this record for CC(NC(=O)c1cc(OC(F)(F)F)cc(C(F)F)c1)c1ncnn1-c1ncc(C#N)s1 (stereo not shown) [I-26] : 80 to 100%

mortality at 20 mg/m2 in this record for C[C@H](NC(=O)c1cc(Cl)cc(C(F)(F)Cl)c1)c1ncnn1-c1ncc(C#N)s1 [I-85] : 80 to 100%
